For each entry below, report its CRF2R Emax % value.
Biological target: T1, CRF2R; also: reference of the scale not given here
T1 sequence (Q13324 whole entry, species assumed, looked up): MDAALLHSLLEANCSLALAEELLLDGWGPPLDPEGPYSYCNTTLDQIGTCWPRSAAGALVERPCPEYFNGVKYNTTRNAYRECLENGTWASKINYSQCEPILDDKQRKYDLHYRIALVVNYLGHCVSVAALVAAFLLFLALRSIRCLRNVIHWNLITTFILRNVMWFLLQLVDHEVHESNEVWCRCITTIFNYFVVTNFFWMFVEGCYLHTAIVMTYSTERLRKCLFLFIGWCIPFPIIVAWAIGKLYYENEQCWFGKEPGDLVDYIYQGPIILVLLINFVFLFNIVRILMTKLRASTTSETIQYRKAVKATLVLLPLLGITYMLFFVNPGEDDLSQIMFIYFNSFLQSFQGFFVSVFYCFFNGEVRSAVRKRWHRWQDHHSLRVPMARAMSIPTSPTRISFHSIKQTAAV
Experiment: cell-based or functional assay
Ends that are not written are not given here.
Report as a plain number; the unit % is understood.

Data request: I am curious: what CRF2R Emax % value has been reported for ZGPPISIDLPVALLRKMIEIEKQEKEKQQAANNRLLLDTI (C-terminal amide) [SEQ ID NO 305] ?
Data returned: 95.2

Data request: I am curious: what CRF2R Emax % value has been reported for ZGPPISIDLPIFLLRKMIEIEKQEKEKQQAANNALLLATI (C-terminal amide) [SEQ ID NO 298] ?
Data returned: 98.8

Data request: I am curious: what CRF2R Emax % value has been reported for DNPSLSIDVPLLLLRTLLELEKTQSQRERAEQNARIFARV-NH2 [SEQ ID NO 384] ?
Data returned: 97.3
